System: Huh-7 cells containing HCV Con1 subgenomic replicon (GS4.1 cells)
Assay: HCV Replicon Assay (NS4A ELISA)
Assay type: cell-based
Settings: Hepatitis C virus, 72 hr, NS4A protein expression by ELISA
pEC50: −log10 of the molar value.
Quantity measured: pEC50

Molecule | Quantity measured | Measurement
COc1ccc2c(OCC[C@@H]3NC(=O)N(C)CCCC/C=C\[C@@H]4C[C@@]4(C(=O)NS(=O)(=O)C4(I)CC4)NC3=O)cc(-c3nc(C(C)C)cs3)nc2c1C | pEC50 | 5.00 to 7.00
COc1ccc2c(OCCC3NC(=O)N(C)CCCC/C=C\C4CC4(C(=O)NS(=O)(=O)C4(C#N)CC4)NC3=O)cc(-c3nc(C(C)C)cs3)nc2c1Cl (centres unmarked) | pEC50 | 5.00 to 7.00
COc1ccc2c(OCC[C@@H]3NC(=O)N(C)CCCC/C=C\[C@@H]4C[C@@]4(C(=O)NS(=O)(=O)C4CC4)NC3=O)cc(-c3nc(C(C)C)cs3)nc2c1Cl | pEC50 | > 7.00
COc1ccc2c(OCC[C@@H]3NC(=O)N(C)CCCC/C=C\[C@@H]4C[C@@]4(C(=O)NS(=O)(=O)C4(C)CC4)NC3=O)cc(-c3csc(NC(C)C)n3)nc2c1 | pEC50 | 5.00 to 7.00
C#C[C@@H]1CCCN1S(=O)(=O)NC(=O)[C@@]12C[C@H]1/C=C\CCCCN(C)C(=O)N[C@@H](CCOc1cc(-c3nc(C(C)C)cs3)nc3c(Cl)c(OC)ccc13)C(=O)N2 | pEC50 | 5.00 to 7.00
